Origin of measurements: patent US20190112365A1

I'd appreciate it if you could supply Kd values for the items below.
- tgt: T1, Human Tau 2N4R, wild type, recombinant full length (human, UniProt P10636 2-758)
- T1 construct: Full length 2N4R isoform; monomer in SPR and ELISA; heparin-induced aggregates or seeds in the functional assays; also called Tau441; Tau-441
- protocol details: SPR BIAcore, mAb captured by anti-human IgG, Tau flowed, 1:1 Langmuir
Just the number in nM, nothing appended.

State the recorded Kd for this entry: 7G6-HCzu12-LCzu15 (antibody, human IgG1, kappa, V domains shown, humanized, human IgG1 kappa) VH: EVQLLESGGGLVQPGGSLRLSCAASGYTFTTYWITWVRQAPGKGLEWVGDIYPGSSICNYNEKFKSRFTISVDNSKSTAYLQMNSLRAEDTAVYYCAREDGYDAWFAYWGQGTLVTVSS VL: DVQMTQSPSSLSASVGDRVTITCRSSQSILHSNGNTYLEWYQQKPGKAPKLLISKVSNRFSGVPSRFSGSGSGTDFTLTISSLQPEDFATYYCFQGSHVPFTFGQGTKLEIKR 0.0959

State the recorded Kd for this entry: 7G6-HCzu11-LCzu11 (antibody, human IgG1, kappa, V domains shown, humanized, human IgG1 kappa) VH: EVQLLESGGGLVQPGGSLRLSCAASGYTFTTYWITWVRQAPGKGLEWVSDIYPGSSICNYNEKFKSRFTISRDNSKNTLYLQMNSLRAEDTAVYYCAKEDGYDAWFAYWGQGTLVTVSS VL: DIQMTQSPSSLSASVGDRVTITCRSSQSILHSNGNTYLEWYQQKPGKAPKLLIYKVSNRFSGVPSRFSGSGSGTDFTLTISSLQPEDFATYYCFQGSHVPFTFGQGTKLEIKR 0.205
